Test system: HeLa
Assay: Antiproliferative activity against human HeLa cells assessed as cell growth inhibition incubated for 24 hrs by MTS assay
Type: functional, cell-based
property.measured: pIC50
Reminder that pIC50 is minus the log10 of a molar concentration.

Task: // returns reported pIC50 for input CNC(=O)Nc1ccc(-c2nc(N3CC4CCC(C3)O4)c3cnn(C4CCC5(CC4)OCCO5)c3n2)cc1
Output: 7.26

###

System: A498
Experiment: cells
Settings: Homo sapiens, A498, 72 h
Description: Antiproliferative activity against human A498 cells assessed as cell growth inhibition incubated for 3 days by MTS assay
property.measured: IC50

1. CNC(=O)Nc1ccc(-c2nc(N3CC4CCC(C3)O4)c3cnn(C4CCC5(CC4)OCCO5)c3n2)cc1 | 100 nM

Task: // returns reported IC50 for input CC(=O)O[C@H]1C(=O)[C@@]2(C)[C@H]([C@H](OC(=O)c3ccccc3)[C@]3(O)C[C@H](OC(=O)[C@H](O)[C@@H](NC(=O)c4ccccc4)c4ccccc4)C(C)=C1C3(C)C)[C@]1(OC(C)=O)CO[C@@H]1C[C@@H]2O
Output: 0.03 µg/mL
